- Species: Homo sapiens
- test-name: In vitro metabolism in human liver microsomes
Metabolism: recorded values
measured-parameter: Metabolism (pmol/min/mg)

| line-notation | measured-parameter | experimental-value |
| --- | --- | --- |
| CCN1c2ncc(CSc3ccncc3)cc2C(=O)N(C)c2ccc(Cl)nc21 | Metabolism | 372 |
| CCN1c2ncc(COc3ccnc(C(F)(F)F)c3)cc2C(=O)N(C)c2ccc(Cl)nc21 | Metabolism | 206 |
| CCN1c2ncc(CS(=O)(=O)c3ccccc3)cc2C(=O)N(C)c2ccc(Cl)nc21 | Metabolism | 322 |
| CC(C)Nc1cccnc1N1CCN(C(=O)c2cc3cc(NS(C)(=O)=O)ccc3[nH]2)CC1 | Metabolism | 144 |
| CCN1c2ncc(COc3cccc4[nH]ccc34)cc2C(=O)N(C)c2ccc(Cl)nc21 | Metabolism | 208 |
| CCN1c2ncc(COc3ccncc3)cc2C(=O)N(C)c2ccc(Cl)nc21 | Metabolism | 53 |
| CCN1c2ncc(CSc3[nH]cnc4nncc3-4)cc2C(=O)N(C)c2ccc(Cl)nc21 | Metabolism | 336 |
| CCN1c2ncc(COc3ccccc3)cc2C(=O)N(C)c2ccc(Cl)nc21 | Metabolism | 171 |
| CCN1c2ncc(COc3ccncc3)cc2C(=O)N(C)c2ccc(F)nc21 | Metabolism | 41 |
| CCN1c2ncc(COc3cccc(C(N)=O)c3)cc2C(=O)N(C)c2ccc(Cl)nc21 | Metabolism | 292 |

---

Reported IC50 values, Human immunodeficiency virus type 1 reverse transcriptase (Human immunodeficiency virus 1).
measured-parameter: IC50 (nM)

| line-notation | measured-parameter | experimental-value |
| --- | --- | --- |
| CCN1c2ncc(COc3cccc(OC)c3)cc2C(=O)N(C)c2ccc(Cl)nc21 | IC50 | 100 |
| CCN1c2ncc(COc3ccccc3O)cc2C(=O)N(C)c2ccc(Cl)nc21 | IC50 | 100 |
| CCN1c2ncc(COc3ccncc3)cc2C(=O)N(C)c2ccc(F)nc21 | IC50 | 50 |
| CCN1c2ncc(CSc3[nH]cnc4nncc3-4)cc2C(=O)N(C)c2ccc(Cl)nc21 | IC50 | 50 |
| CCN1c2ncc(CNc3ccccc3)cc2C(=O)N(C)c2ccc(Cl)nc21 | IC50 | 80 |

---

- system-name: Human immunodeficiency virus type 1 reverse transcriptase (Human immunodeficiency virus 1)
Recorded measurements of IC50, one per entry

| line-notation | system-name | unit-name | IC50 |
| --- | --- | --- | --- |
| CCN1c2ncc(COc3ccncc3)cc2C(=O)N(C)c2cccnc21 | Human immunodeficiency virus type 1 reverse transcriptase (Human immunodeficiency virus 1) | nM | 20 |
| CCN1c2ncc(COc3cc[n+]([O-])cc3)cc2C(=O)N(C)c2ccc(Cl)nc21 | Human immunodeficiency virus type 1 reverse transcriptase (Human immunodeficiency virus 1) | nM | 230 |
| CCN1c2ncc(COc3cccc(C(=O)OC)c3)cc2C(=O)N(C)c2ccc(Cl)nc21 | Human immunodeficiency virus type 1 reverse transcriptase (Human immunodeficiency virus 1) | nM | 700 |
| CCN1c2ncc(CNc3cccc(N)c3)cc2C(=O)N(C)c2ccc(Cl)nc21 | Human immunodeficiency virus type 1 reverse transcriptase (Human immunodeficiency virus 1) | nM | 60 |
| CCN1c2ncc(COc3cc[n+]([O-])cc3)cc2C(=O)N(C)c2cccnc21 | Human immunodeficiency virus type 1 reverse transcriptase (Human immunodeficiency virus 1) | nM | 210 |
| CCN1c2ncc(CCc3ccncc3)cc2C(=O)N(C)c2ccc(Cl)nc21 | Human immunodeficiency virus type 1 reverse transcriptase (Human immunodeficiency virus 1) | nM | 80 |
| CCN1c2ncc(N(C)C(=O)c3ccccc3)cc2C(=O)N(C)c2ccc(Cl)nc21 | Human immunodeficiency virus type 1 reverse transcriptase (Human immunodeficiency virus 1) | nM | 210 |
| CCN1c2ncc(NCc3ccccc3)cc2C(=O)N(C)c2ccc(Cl)nc21 | Human immunodeficiency virus type 1 reverse transcriptase (Human immunodeficiency virus 1) | nM | 260 |
| CCN1c2ncc(COc3cccc(C(=O)O)c3)cc2C(=O)N(C)c2ccc(Cl)nc21 | Human immunodeficiency virus type 1 reverse transcriptase (Human immunodeficiency virus 1) | nM | 90 |
| CCN1c2ncc(COc3ccc(O)cc3)cc2C(=O)N(C)c2ccc(Cl)nc21 | Human immunodeficiency virus type 1 reverse transcriptase (Human immunodeficiency virus 1) | nM | 210 |
| CCN1c2ncc(COc3ccccc3)cc2C(=O)N(C)c2ccc(Cl)nc21 | Human immunodeficiency virus type 1 reverse transcriptase (Human immunodeficiency virus 1) | nM | 110 |

---

- Test system: Human immunodeficiency virus type 1 reverse transcriptase (Human immunodeficiency virus 1), Q72547 [Y181C]
- test-name: Inhibitory activity against HIV-1 Y181C reverse transcriptase at 1 uM concentration
Tick True if inhibition is 20% or greater. Tick False if inhibition is less than 20%.

| line-notation | assigned-class |
| --- | --- |
| CCN1c2ncc(COc3ccc(O)cc3)cc2C(=O)N(C)c2ccc(Cl)nc21 | True |
| CCN1c2ncc(COc3ccccc3C(=O)OC)cc2C(=O)N(C)c2ccc(Cl)nc21 | False |
| CCN1c2ncc(N(C)C(=O)c3ccccc3)cc2C(=O)N(C)c2ccc(Cl)nc21 | True |
| CCN1c2ncc(CN(C)c3ccccc3)cc2C(=O)N(C)c2ccc(Cl)nc21 | False |
| CCN1c2ncc(OCc3ccccc3)cc2C(=O)N(C)c2ccc(Cl)nc21 | False |
| CCN1c2ncc(COc3cccc(F)c3)cc2C(=O)N(C)c2ccc(Cl)nc21 | False |
| CCN1c2ncc(COc3cccc(C(=O)OC)c3)cc2C(=O)N(C)c2ccc(Cl)nc21 | True |
| CCN1c2ncc(COc3ccc(C(=O)OC)cc3)cc2C(=O)N(C)c2ccc(Cl)nc21 | True |
| CCN1c2ncc(COc3cccc(N(C)C)c3)cc2C(=O)N(C)c2ccc(Cl)nc21 | False |
| CCN1c2ncc(COc3cc[n+]([O-])cc3)cc2C(=O)N(C)c2ccc(Cl)nc21 | True |

---

Each item that follows carries a reported CC30.
- test-name: Compound was tested for its toxicity by using MTT toxicity assay.

| compound | censor-symbol | CC30 [µM] |
| --- | --- | --- |
| CCN1c2ncc(CSc3ccccc3)cc2C(=O)N(C)c2ccc(Cl)nc21 | > | 60 |
| CCN1c2ncc(COc3ccncc3)cc2C(=O)N(C)c2cccnc21 | > | 256 |
| CCN1c2ncc(COc3cccc(C(=O)O)c3)cc2C(=O)N(C)c2ccc(Cl)nc21 | = | 250 |
| CCN1c2ncc(COc3ccncc3)cc2C(=O)N(C)c2ccc(Cl)nc21 | > | 120 |
| CCN1c2ncc(CSc3[nH]cnc4nncc3-4)cc2C(=O)N(C)c2ccc(Cl)nc21 | = | 40 |
| CCN1c2ncc(CNc3ccccc3)cc2C(=O)N(C)c2ccc(Cl)nc21 | > | 60 |
| CCN1c2ncc(COc3ccccc3)cc2C(=O)N(C)c2ccc(Cl)nc21 | > | 60 |
| CCN1c2ncc(COc3cccc4[nH]ccc34)cc2C(=O)N(C)c2ccc(Cl)nc21 | > | 30 |
| CCN1c2ncc(CNc3cccc(N)c3)cc2C(=O)N(C)c2ccc(Cl)nc21 | = | 60 |
| CCN1c2ncc(COc3cccc(C(N)=O)c3)cc2C(=O)N(C)c2ccc(Cl)nc21 | = | 130 |
| CCN1c2ncc(COc3ccncc3)cc2C(=O)N(C)c2ccc(F)nc21 | = | 160 |
| CCN1c2ncc(C[S+]([O-])c3ccccc3)cc2C(=O)N(C)c2ccc(Cl)nc21 (configuration not stated) | = | 45 |

---

- Tested on: Human immunodeficiency virus type 1 reverse transcriptase (Human immunodeficiency virus 1), Q72547 [R221A]
- test-name: Inhibitory activity against HIV-1 Y188L reverse transcriptase at 1 uM concentration
inhibition values by entry

| line-notation | unit-name | inhibition |
| --- | --- | --- |
| CCN1c2ncc(OCc3ccccc3)cc2C(=O)N(C)c2ccc(Cl)nc21 | % | 0 |
| CCN1c2ncc(NCc3ccccc3)cc2C(=O)N(C)c2ccc(Cl)nc21 | % | 0 |
| CCN1c2ncc(COc3cccc(C(=O)OC)c3)cc2C(=O)N(C)c2ccc(Cl)nc21 | % | 11 |
| CCN1c2ncc(N(C)C(=O)c3ccccc3)cc2C(=O)N(C)c2ccc(Cl)nc21 | % | 13 |
| CCN1c2ncc(COc3cc[n+]([O-])cc3)cc2C(=O)N(C)c2ccc(Cl)nc21 | % | 0 |
| CCN1c2ncc(COc3cc[n+]([O-])cc3)cc2C(=O)N(C)c2ccc(F)nc21 | % | 31 |
| CCN1c2ncc(COc3cccc(F)c3)cc2C(=O)N(C)c2ccc(Cl)nc21 | % | 16 |
| CCN1c2ncc(COc3ccccc3C(=O)OC)cc2C(=O)N(C)c2ccc(Cl)nc21 | % | 2 |
| CCN1c2ncc(CN(C)c3ccccc3)cc2C(=O)N(C)c2ccc(Cl)nc21 | % | 17 |
| CCN1c2ncc(COc3cccc(N(C)C)c3)cc2C(=O)N(C)c2ccc(Cl)nc21 | % | 7 |
| CCN1c2ncc(COc3ccc(C(=O)OC)cc3)cc2C(=O)N(C)c2ccc(Cl)nc21 | % | 0 |
| CCN1c2ncc(COc3ccc(O)cc3)cc2C(=O)N(C)c2ccc(Cl)nc21 | % | 21 |

Reference source: ChEMBL document CHEMBL1131307
